Below, each entry is listed alongside its reported pKd.
Assay System: Nsp5 (SARS-CoV-2) (UniProt P0DTD1)
Assay Name: fluorescence polarisation
Reminder that pKd means the negative base-10 logarithm of the concentration expressed in mol/L.

TVKFHARTGMIESNR [DLG3_(577–592)]: 5.15

Let us examine a further case.
Q) What measured pKd goes with GASSRLQASLSSSDV [SHROOM2_(403–417)] ?
A) 3.55
